tested.on: VEGF (used to stimulate HUVEC cells) (UniProt P15692-4 27-191, limits assumed)
Sequence (P15692 other isoform, or with tags, fused parts or gaps limits assumed): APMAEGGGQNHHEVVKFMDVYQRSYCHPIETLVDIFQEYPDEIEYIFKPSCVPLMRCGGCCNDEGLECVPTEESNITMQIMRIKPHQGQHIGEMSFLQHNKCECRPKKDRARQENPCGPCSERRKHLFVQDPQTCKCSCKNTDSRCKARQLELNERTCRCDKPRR
protocol.text: cell-based or functional assay
Catalogue of binders with associated IC50, VEGF HUVEC proliferation assay
Just so you know, I need the unit written after the number.

VEGFBII010 (VHH, not shown: small tags and cut ends, Homodimeric bivalent anti-VEGF VHH; also called VEGFBII23B04-35GS-23B04) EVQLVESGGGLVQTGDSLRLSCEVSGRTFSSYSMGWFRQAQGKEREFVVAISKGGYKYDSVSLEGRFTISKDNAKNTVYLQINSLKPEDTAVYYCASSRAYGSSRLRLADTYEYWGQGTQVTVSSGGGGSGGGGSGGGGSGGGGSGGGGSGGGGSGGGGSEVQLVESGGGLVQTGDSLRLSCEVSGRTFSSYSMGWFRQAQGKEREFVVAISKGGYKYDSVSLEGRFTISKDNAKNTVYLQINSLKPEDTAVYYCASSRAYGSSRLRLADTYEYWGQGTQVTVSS : 220 pM
VEGFBII024 (VHH, not shown: small tags and cut ends, Bivalent anti-VEGF VHH; also called VEGFBII23B04-40GS-86H09) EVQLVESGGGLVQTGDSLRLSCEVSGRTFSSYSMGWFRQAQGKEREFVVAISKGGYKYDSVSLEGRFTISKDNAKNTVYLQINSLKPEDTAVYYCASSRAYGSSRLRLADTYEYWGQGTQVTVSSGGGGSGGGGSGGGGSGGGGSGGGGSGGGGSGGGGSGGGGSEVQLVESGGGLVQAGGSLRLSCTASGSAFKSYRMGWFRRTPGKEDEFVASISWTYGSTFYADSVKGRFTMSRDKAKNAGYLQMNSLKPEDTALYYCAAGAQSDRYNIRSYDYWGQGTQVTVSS : 380 pM

Here's the next entry for you.
Query :: Param item = VEGFBII021 (VHH, not shown: small tags and cut ends, Bivalent (heterodimeric) anti-VEGF VHH; also called VEGFBII23B04-40GS-5B05) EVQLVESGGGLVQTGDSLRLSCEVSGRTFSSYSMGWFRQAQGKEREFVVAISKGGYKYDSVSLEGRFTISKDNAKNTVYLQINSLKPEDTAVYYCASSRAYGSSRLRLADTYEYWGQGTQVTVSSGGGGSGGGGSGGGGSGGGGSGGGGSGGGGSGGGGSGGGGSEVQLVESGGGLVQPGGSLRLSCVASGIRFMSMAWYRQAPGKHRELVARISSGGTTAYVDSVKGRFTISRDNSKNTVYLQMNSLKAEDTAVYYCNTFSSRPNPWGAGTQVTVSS ; retrieve measured IC50, VEGF HUVEC proliferation assay.
Result :: 400 pM
